I'd be grateful if you could share measured Absorbance spectrum peak for these entries.
Assay Comment: Absorbance spectrum of light absorbing agents
Assay type: physicochemical
Assay Conditions: light absorbing agent at 1%
Source text: Table 1 summarizes the properties of different light absorbing agents tested according to the invention. The Table presents the absorbance peak and the estimated width of the absorbance band, based on the experimental spectra covering around 90% of the dye absorbance. The intrinsic fluorescence of the agents at the emission wavelength of 570 nm (green channel) or at the emission of 666 nm (red channel) is indicated. […]
Entry rule: numbers only, all in nm.

Data request, read-out Absorbance spectrum peak, for O=C1/C(=C2\Nc3ccc(S(=O)(=O)[O-])cc3C2=O)Nc2ccc(S(=O)(=O)[O-])cc21.[Na+].[Na+] [(C) E132, E132]
609

Next up: CN(C)c1ccc2nc3ccc(N)cc3[s+]c2c1.[Cl-] [(E) Azure A, Azure A]
636

Next up: CCN(Cc1cccc(S(=O)(=O)[O-])c1)c1ccc(C(=C2C=CC(=[N+](CC)Cc3cccc(S(=O)(=O)[O-])c3)C=C2)c2ccccc2S(=O)(=O)[O-])cc1.[Na+].[Na+] [(L) E133, E133]
635

Next up: O=S(=O)([O-])c1cc(S(=O)(=O)[O-])c2c(N=Nc3ccc(S(=O)(=O)[O-])c4ccccc34)c(O)ccc2c1.[Na+].[Na+].[Na+] [(G) E124, E124]
508

Next up: CC(=O)Nc1ccc(S(=O)(=O)[O-])c2cc(S(=O)(=O)[O-])c(N=Nc3ccc(N=Nc4ccc(S(=O)(=O)[O-])cc4)c4ccc(S(=O)(=O)[O-])cc34)c(O)c12.[Na+].[Na+].[Na+].[Na+] [(J) Black Brilliant, Black Brilliant]
571

---

I'd be grateful if you could share measured Absorbance spectrum (estimated min-max) for these entries.
Assay Comment: Absorbance spectrum of light absorbing agents
Format: physicochemical
Assay Conditions: light absorbing agent at 1%; estimated width of band covering around 90% of the dye absorbance

Data request, read-out Absorbance spectrum (estimated min-max), for O=C1/C(=C2\Nc3ccc(S(=O)(=O)[O-])cc3C2=O)Nc2ccc(S(=O)(=O)[O-])cc21.[Na+].[Na+]
525-675

Next up: CN(C)c1ccc2nc3ccc(N)cc3[s+]c2c1.[Cl-] [(E) Azure A, Azure A]
450-700

Next up: CC(=O)Nc1ccc(S(=O)(=O)[O-])c2cc(S(=O)(=O)[O-])c(N=Nc3ccc(N=Nc4ccc(S(=O)(=O)[O-])cc4)c4ccc(S(=O)(=O)[O-])cc34)c(O)c12.[Na+].[Na+].[Na+].[Na+]
475-670

Next up: O=S(=O)([O-])c1cc(S(=O)(=O)[O-])c2c(N=Nc3ccc(S(=O)(=O)[O-])c4ccccc34)c(O)ccc2c1.[Na+].[Na+].[Na+]
<400-585

Next up: CCN(Cc1cccc(S(=O)(=O)[O-])c1)c1ccc(C(=C2C=CC(=[N+](CC)Cc3cccc(S(=O)(=O)[O-])c3)C=C2)c2ccccc2S(=O)(=O)[O-])cc1.[Na+].[Na+]
525-690

The measured values listed here are drawn from patent US20110237455A1.
